- protocol-text: cell-permeable autofluorescent compounds in GFP channel, dose response, artefact control, imaging, high-content imaging (AID 2124);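 also: cells exposed to compound for 48 hours before fixing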
- condition-summary: cells, GFP-channel autofluorescence, high-content imaging; cell count; at 10 µM
Inconclusive results are not listed.
Decision: cell count >= 3000 cells yields true, all other cases yield false.

CCN(CC)c1ccc2cc(-c3nnc(-c4ccccc4)o3)c(=O)oc2c1	true
C=CCn1c(SCCOc2ccc(OC)cc2)nnc1C(C)NC(=O)Cc1ccc(OC)cc1 (stereo not given)	true

Data request: State whether the measured cell count reaches 3000 cells, counting equality as reaching it, for O=[N+]([O-])c1ccc(N/N=C/c2sc(N3CCOCC3)nc2-c2ccccc2)c(S(=O)(=O)Nc2ccccc2Cl)c1
Data returned: false

Data request: State whether the measured cell count reaches 3000 cells, counting equality as reaching it, for Cc1cc(C)nc(SCSc2nc(C)cc(C)n2)n1
Data returned: true
